- target-entity: PKC-γ (Homo sapiens, UniProt P05129)
- protocol-text: PKC isoform translocation in A549-tGFP cells
- measurement-parameters: 60 minutes
experimental-readout: EC50 (µM)
Numeric answer only, unit µM assumed.

[
  {
    "molecule": "Cc1ccc(C#Cc2ccc3oc(CC(C)(C)C(=O)OCC4(CO)CC(=CCC(CC(C)C)CC(C)C)C(=O)O4)cc3c2)cc1 (centres unmarked) [C-232A]",
    "readout-value": 11.5
  }
]

Would you kindly look at the next entry?
Recall the reported EC50 of CC(C)CC(C/C=C1\CC(CO)(COC(=O)C(C)(C)C)OC1=O)CC(C)C (centres unmarked) [AJH-863, reference compound] when tested on PKC-γ (Homo sapiens, UniProt P05129). 19.4
